biological target: GST tagged LXRalpha LBD (ligand binding domain) (Homo sapiens); assay: LanthaScreen TR-FRET Liver X Receptor Coactivator Assay, LXR alpha-LBD (co-activator recruitment; IP and % Emax relative to T0901317); conditions: Inflection Point of co-activator recruitment, LXR alpha-LBD, TR-FRET
Sequence (Q13133 209-447 limits assumed): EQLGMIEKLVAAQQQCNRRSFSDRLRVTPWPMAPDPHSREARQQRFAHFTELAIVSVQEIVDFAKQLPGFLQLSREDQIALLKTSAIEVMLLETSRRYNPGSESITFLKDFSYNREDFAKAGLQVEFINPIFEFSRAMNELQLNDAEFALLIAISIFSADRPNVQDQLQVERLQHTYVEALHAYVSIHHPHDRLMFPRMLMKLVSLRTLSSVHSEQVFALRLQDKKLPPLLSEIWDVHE
Reported endpoint: EC50 (µM)

| Molecule | Units symbol | Test value |
| --- | --- | --- |
| COc1ccccc1[C@]1(C(=O)N(C)CCCC2CCN(c3ccc(C(=O)N(C)C)c(Cl)n3)CC2)CCCO1 [Example 1-59] | µM | 2.86 |

A = CN(C)C(=O)c1ccc(N2CCC3(CC2)C[C@H]3CCN(C)C(=O)[C@](O)(c2ccccc2)C(F)(F)F)cc1Cl [Example 7-25]
B = CN(C)C(=O)c1ccc(N2CCC(CCCN(C)C(=O)[C@@](O)(c3cccc(OC(F)(F)F)c3)C(F)(F)F)CC2)nc1Cl [Example 1-39]
Please state the entry with greater EC50 among A and B . Refer to your chosen item by its label in the answer.
B
